test system: Human colon cancer cell line SW-480; assay: XTT assay, cytotoxicity on SW-480; type: cell-based; conditions: 24 h
Parameter Measured: IC50 (µM)

• O=C1[O][Pt]2([NH][C@@H]3CCCC[C@H]3[NH]2)[O]C1=O [oxaliplatin, reference compound] = 7.87

---

system: human breast cancer cell line MCF-7; assay: MTT assay, cytotoxicity on breast cancer cells; settings: read-out: IC50, cytotoxicity on MCF-7 cells, 24 h, mean±SD
pIC50: −log10 of the molar value.
Parameter Measured: pIC50

• O=C1[O][Pt]2([NH][C@@H]3CCCC[C@H]3[NH]2)[O]C1=O [oxaliplatin, reference compound] = 4.50
